Every entry's value here was drawn from the DeepSol protein solubility set.

Protocol notes: soluble on expression in E. coli; label from the status in PepcDB or PDB records
Measured parameter: soluble on expression in E. coli

Some solved cases for reference:
Construct sequence	soluble on expression in E. coli
MGSDKIHHHHHHMHMAAKRGRTAQRLELGLQLRQLRENCDGGDRGVGLTRKQAVQGLRISEASLQRIETGSLNFRFVGDLRKLLTKYGVTDEDVVDSLISLNRESNQQDWLTQYRGLMPSGMPGFVGLEPEAHAMKAYHPTLVYGLLQTERYARAVHEVQKPIEEYTTEFIRSSVELRMKRQEVLTRESPVKLHVILGEAALRYPIGGAEVMREQCARIEELSGWDHITVQVLPFRPSYRSINDFAILDFGNNLPPRVQADSAWGSVSTSDKPREVDRFSRRFDTMTASALPPEDTPEFLHRLEREL	not soluble
MGSDKIHHHHHHMSRTLHAQTHAWLKVFAISARHLSFTRAAEELHVTTGAVSQQIKQLETRLGFKLFRRLPRRLELTDEGQRLAAVVDQAYDAVGQEVRRLRTGVMSGVLRLRCVPSFLAKWLMPRLTRLQARFPDIELHVASEDSNLSLREGEFELAIDLNDGRYAGFQITTLMDEEIFAVCSPQLLRRRPPLVRPDDLGYYPLLHDVTAWRGSHDYAEWEHYLHALGAASVNVQRGYTFNRNHLTVEAAIAGMGVAIARRTLITNELDTGALIAPFAGTVATGKSYGLVYHPGALDDRRVRAVHDWIVEEAARSTAH	not soluble
MALTVAKSALEAIREKGLGGFMRMIREEGFMRCLPDGNLLQTKIHNIGATLVGVDKFGNKYYQKLGDTQYGRHRWVEYASKDRYNASQVPAEWHGWLHFITDHTGDELLSLKPKRYGLEHKENFSGEGDAYIYHSKGHTLNPGQKNWTRYQSWVPTKTQ	not soluble
MNLPEVSEKLIEQLNHGSTKAFDKIYHTYYLYLCAIAVYYVHDKRVAGEIVNDVFVSFWQNRHHITYPALPYLRRAIQNASISYLRSSAFNERIMTEQMEEIWAFLENHILSSDNPLQALESSEMNEIILRKVEELPAKCRAVFKASLYEGKSYSEIAEEQNINVATVRVQMKIALTKLRESLGTPYMIAILMFL	not soluble
MAGWVAKRFWKEASVAEEPGGFAVLLDGRGVRTPAKRPLILPTCALAEAVASEWQAQEGEVRPETMPVTRSANSALDKVAPQFDEVTEMLAAYGGTDLLCYRATAPEALVARQARAWDPVLAWAAERFEAPLETTAGVMHQAQPEASLTRLAEHVRSFSPFQVAGFHDLVAISGSLILGLGVTEGHLLPEEAWELSRVDESWQIEQWGADEEAAEIEAFRRTAFLQAARFYALCGKLAAALEHHHHHH	not soluble

What does the record list as soluble on expression in E. coli for NRYAKILVEKEKNRRTVMEQKMELESYKKVNVANDRYITLLHDTNHHIKTVYSLLKKDKKDDAMNMLSKLFDKYEKAEMIEYSGNTILNTILSDYKEKSSKENIECDIFVERGFNIEYVDEIDLVAMLSNLLSNSYEAAAKSDMKKIRIQMFMQNDGSFSVIKIENSYTSMIVEEDSVLKTTKQNKEFHGLGIKSVQQIAEKYNGWLSSTWSDNVFKSVLILENSMC ? not soluble

For MRAQMKQYNCHEGALPFTKSYLLRPLFNAFLMSPKPFHTTEACIGCKKCEKVCPVGNITVTDRPVWGGNCTQCLACYHVCPVHAVEYGKMTGLEHHHHHH then? not soluble

Check MGSDKIHHHHHHMPIHLIWGNDYEACNREIEELINSVIDSSWKSFNYSQLDGNDPKQNLRALEEAQSAPLGSGGRIVLVRRSPFCNGCSIELGNKLEQVIKLIPDKTHLILSNANKPDKRLKTTKLIEKSIQSNTLSQEKSFILPLPWDINGQRNLVKNNLERLNLKMNYETIDLIVESIGNDSSLINTELQKLSLFSEAVNTNLTTDKPREISKELVKKLIQNNSTNALEIANSLLKGEKIIALNKIQSLLKNGEPALRLITTLTGQSRGWLWVHLLDSQGNQDVKEIAKLAGIANPKRIFVIRKQIQGKSLGTLLELMKKLLKIEASIKSGIKPIDSFKDNLLTDSKILANN too. not soluble

Moving on to MSLIYFETERLIARDYLTNDYLPFSQMNADEQVMKYFPARLTQNESNAFLDRIQEELKSLGYGLFAIEVKSTGEFIGFTGFHEATFEATFTPCTEIGWRLKHSAWNQGYATEAALGALALAEEINTINEIYSFTAALNKPSENVMKKIHLTKIATFEHPALVNGDPLKPHVLYKKAEGHHHHHH soluble

Here is the next sequence: MGSDKIHHHHHHMSKKTYYYHSESEDLVSSAQQDFQLPDDYQFFREGVAWQFWNGLVRSLACAFAWLYSRLFLLVKVKGKEKLRPFKKQGYFVYGNHTQMLGDPFNPMTIVNPYHYYALAAQANWGIPFLGKYVIPAAGLPVGKNIKQSIRLLKDVKYAYEEKQAAIVIYPEAHLWPYYTKIRPFPATSFNFPVSLKAPAFAMTTTYQPCRWRKRPKITVYIDGPFYPDEKLGKKAAQEKLHGEIAKSMQERAKLSTCEYCSYVKIDSKN not soluble

Further, for MSLRVRIAVIGKLDGFIKEGIKHYEKFLRRFCKPEVLEIKRVHRGSIEEIVRKETEDLTNRILPGSFVMVMDKRGEEVSSEEFADFLKDLEMKGKDITILIGGPYGLNEEIFAKAHRVFSLSKMTFTHGMTVLIVLEQIFRAFKIIHGENYHYEGGSHHHHHH ? soluble

Please give the result for MGSDKIHHHHHHMTSIVFNGSYITKKNTGVGVVSKDLLYSLSANKITTLIPKDLDIKGDIYIPNNLSPGTGLKSHFRRLYWLQNSVPKLMNNLNAEYFLSPLLEAPLFSNIKSIVLAHDLIPIRYPSVSFLTLYYLIYIPLILKQSKLILCNSVSTANDLHRFYKVPMHKLFPIKLGFNNKKYYPIKKIRKKFFLIIGRHNPHKNLRRVIKAFAYSKINDYKLIFVGPFDKRHTPSLLKLIDKHNIRHLCVWKGWIDDDEKLSLLNECHALIIASLWEGFGLPALEAMACGTPVIASDRGALREVMGNYGYFINPFNIQSIACAMNAVINDKKCFENALQEGPSRAESFNWLDTARTIEKIIQEID too. not soluble

Would you kindly repeat that for MARTAAALHILVKHKEQADDILAQLKKGAKFHVLAKKYSTCPSGKKGGDLGEFRQGQMVPAFDKACFQGEVLTPQLVKTKFGWHVVKVLYRT ? not soluble
